- Target entity: Lipolase (Thermomyces lanuginosus)
- Construct: purchased Sigma-Aldrich
- Sequence (O59952 23-291): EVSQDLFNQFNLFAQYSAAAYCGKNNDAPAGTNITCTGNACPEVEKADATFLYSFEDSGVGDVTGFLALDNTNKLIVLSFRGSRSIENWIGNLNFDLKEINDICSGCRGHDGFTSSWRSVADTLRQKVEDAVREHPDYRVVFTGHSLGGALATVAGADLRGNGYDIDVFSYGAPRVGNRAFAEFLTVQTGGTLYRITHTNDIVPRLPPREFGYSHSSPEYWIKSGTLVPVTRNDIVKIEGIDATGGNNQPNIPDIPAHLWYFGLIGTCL
- Assay procedure: storage stability of lipase (Lipolase activity, pNitrophenol-valerate substrate) in liquid formulations at 37° C.
- Type: biochemical, Thermomyces lanuginosa
- Experimental setup: base formulation III.; component (a) 2.5 wt %; Lipolase 0.4 wt %; storage at 37° C.; 10 d
In this section, each of the compounds is paired with its reported lipase activity.

Compound: CC(=O)OCC[N+](C)(C)C [(A.12), Acetylcholine]
Target entity: Lipolase (Thermomyces lanuginosus)
lipase activity, %: 91

Compound: O=C([O-])CC(O)(CC(=O)[O-])C(=O)O.[Na+].[Na+] [C-(A.21), disodium salt of citric acid]
Target entity: Lipolase (Thermomyces lanuginosus)
lipase activity, %: 50

Compound: O=C([O-])CC(O)(CC(=O)O)C(=O)O.[Na+] [C-(A.20), monosodium salt of citric acid]
Target entity: Lipolase (Thermomyces lanuginosus)
lipase activity, %: 51

Compound: O=C([O-])CC(O)(CC(=O)[O-])C(=O)[O-].[Na+].[Na+].[Na+] [C-(A.22), trisodium salt of citric acid]
Target entity: Lipolase (Thermomyces lanuginosus)
lipase activity, %: 48
